assay: Cmax in rat at 2.0 mg/kg, iv and 10 mg/kg, po; type: ADME, organism-based; conditions: in vivo
Field: label. Allowed values: yes (Cmax < 7 µM) or no (Cmax >= 7 µM).

Query block: Lab note: Cmax threshold 7 µM. Does this compound come in strictly under it? "Cn1cc(-c2ccsc2)cc(NC(=O)N2CCC(n3c(=O)[nH]c4ncccc43)CC2)c1=O"
Result block: no

Query block: Lab note: Cmax threshold 7 µM. Does this compound come in strictly under it? "Cn1cc(-c2ccc(O)cc2)cc(NC(=O)N2CCC(n3c(=O)[nH]c4ncccc43)CC2)c1=O"
Result block: yes

Query block: Lab note: Cmax threshold 7 µM. Does this compound come in strictly under it? "O=C(Nc1cc(-c2ccsc2)cn(CC(F)(F)F)c1=O)N1CCC(n2c(=O)[nH]c3ncccc32)CC1"
Result block: yes

Query block: Lab note: Cmax threshold 7 µM. Does this compound come in strictly under it? "COCCn1cc(-c2ccsc2)cc(NC(=O)N2CCC(n3c(=O)[nH]c4ncccc43)CC2)c1=O"
Result block: yes

Query block: Lab note: Cmax threshold 7 µM. Does this compound come in strictly under it? "O=C(Nc1cc(-c2cccc(F)c2F)cn(CC(F)(F)F)c1=O)N1CCC(n2c(=O)[nH]c3ncccc32)CC1"
Result block: no

Query block: Lab note: Cmax threshold 7 µM. Does this compound come in strictly under it? "O=C(Nc1cc(-c2ccccc2)cn(CC(F)(F)F)c1=O)N1CCC(n2c(=O)[nH]c3ncccc32)CC1"
Result block: yes

Query block: Lab note: Cmax threshold 7 µM. Does this compound come in strictly under it? "Cn1cc(-c2ccccc2)cc(NC(=O)N2CCC(n3c(=O)[nH]c4ncccc43)CC2)c1=O"
Result block: no

Query block: Lab note: Cmax threshold 7 µM. Does this compound come in strictly under it? "COCCn1cc(-c2ccccc2)cc(NC(=O)N2CCC(n3c(=O)[nH]c4ncccc43)CC2)c1=O"
Result block: yes

====

molecular target: Calcitonin gene-related peptide type 1 receptor (Homo sapiens, UniProt O60894+Q16602); assay: Antagonist activity at human recombinant CL receptor /RAMP1 assessed as inhibition of cAMP accumulation in presence of 50% human serum by cell based assay; format: functional
Sequence (Q16602 whole entry, one chain of several): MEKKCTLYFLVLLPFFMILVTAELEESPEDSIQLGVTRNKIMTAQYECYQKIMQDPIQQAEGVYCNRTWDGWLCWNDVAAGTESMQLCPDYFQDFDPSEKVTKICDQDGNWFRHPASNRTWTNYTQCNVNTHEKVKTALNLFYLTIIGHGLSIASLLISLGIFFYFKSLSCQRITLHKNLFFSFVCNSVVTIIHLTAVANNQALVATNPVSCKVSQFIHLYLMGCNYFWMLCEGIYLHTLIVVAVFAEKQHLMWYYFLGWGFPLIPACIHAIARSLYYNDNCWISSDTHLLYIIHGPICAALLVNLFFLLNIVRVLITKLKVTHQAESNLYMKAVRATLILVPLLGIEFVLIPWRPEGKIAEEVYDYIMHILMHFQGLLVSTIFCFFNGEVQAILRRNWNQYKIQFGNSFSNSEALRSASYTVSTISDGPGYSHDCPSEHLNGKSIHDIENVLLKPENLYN
RECORDED_ENDPOINT: pIC50
# pIC50: negative log10 of molar concentration; output just the value

Query block: Param item = "Cn1cc(-c2ccccc2)cc(NC(=O)N2CCC(n3c(=O)[nH]c4ncccc43)CC2)c1=O" ; retrieve measured pIC50.
Result block: 4.96

Query block: Param item = "COCCn1cc(-c2ccn[nH]2)cc(NC(=O)N2CCC(n3c(=O)[nH]c4ncccc43)CC2)c1=O" ; retrieve measured pIC50.
Result block: 6.40

Query block: Param item = "O=C(Nc1cc(-c2cccc(F)c2F)cn(CC(F)(F)F)c1=O)N1CCC(n2c(=O)[nH]c3ncccc32)CC1" ; retrieve measured pIC50.
Result block: 6.09

Query block: Param item = "O=C(Nc1cc(-c2ccc(O)cc2)cn(CC(F)(F)F)c1=O)N1CCC(n2c(=O)[nH]c3ncccc32)CC1" ; retrieve measured pIC50.
Result block: 6.01

====

experiment: Bioavailability in rat at 10 mg/kg, po; format: ADME, organism-based; conditions: in vivo
Rule: bioavailability under 30% gives no (0), otherwise yes (1).

Query block: Reported bioavailability reaches at least 30% for "COCCn1cc(-c2ccsc2)cc(NC(=O)N2CCC(n3c(=O)[nH]c4ncccc43)CC2)c1=O" ?
Result block: no (0)

Query block: Reported bioavailability reaches at least 30% for "Cn1cc(-c2ccsc2)cc(NC(=O)N2CCC(n3c(=O)[nH]c4ncccc43)CC2)c1=O" ?
Result block: yes (1)

Query block: Reported bioavailability reaches at least 30% for "O=C(Nc1cc(-c2ccsc2)cn(CC(F)(F)F)c1=O)N1CCC(n2c(=O)[nH]c3ncccc32)CC1" ?
Result block: yes (1)

Query block: Reported bioavailability reaches at least 30% for "O=C(Nc1cc(-c2cccc(F)c2F)cn(CC(F)(F)F)c1=O)N1CCC(n2c(=O)[nH]c3ncccc32)CC1" ?
Result block: yes (1)

Query block: Reported bioavailability reaches at least 30% for "COCCn1cc(-c2ccccc2)cc(NC(=O)N2CCC(n3c(=O)[nH]c4ncccc43)CC2)c1=O" ?
Result block: yes (1)

Query block: Reported bioavailability reaches at least 30% for "Cn1cc(-c2ccccc2)cc(NC(=O)N2CCC(n3c(=O)[nH]c4ncccc43)CC2)c1=O" ?
Result block: yes (1)

Query block: Reported bioavailability reaches at least 30% for "O=C(Nc1cc(-c2ccccc2)cn(CC(F)(F)F)c1=O)N1CCC(n2c(=O)[nH]c3ncccc32)CC1" ?
Result block: yes (1)

Query block: Reported bioavailability reaches at least 30% for "Cn1cc(-c2ccc(O)cc2)cc(NC(=O)N2CCC(n3c(=O)[nH]c4ncccc43)CC2)c1=O" ?
Result block: no (0)

====

Give measured pKi for each item. Keep answers brief.
biological target: Calcitonin gene-related peptide type 1 receptor (Homo sapiens, UniProt O60894+Q16602); assay: Displacement of [125I]CGRP from human recombinant CL receptor /RAMP1
# pKi: negative log10 of molar concentration; output just the value

Query block: Query the reported pKi for Calcitonin gene-related peptide type 1 receptor (Homo sapiens, UniProt O60894+Q16602); item: "Cn1cc(-c2ccc(O)cc2)cc(NC(=O)N2CCC(n3c(=O)[nH]c4ncccc43)CC2)c1=O"
Result block: 7.37

Query block: Query the reported pKi for Calcitonin gene-related peptide type 1 receptor (Homo sapiens, UniProt O60894+Q16602); item: "O=C(Nc1cc(-c2cccnc2)cn(CC(F)(F)F)c1=O)N1CCC(n2c(=O)[nH]c3ncccc32)CC1"
Result block: 6.20

Query block: Query the reported pKi for Calcitonin gene-related peptide type 1 receptor (Homo sapiens, UniProt O60894+Q16602); item: "Cn1cc(-c2ccccc2)cc(NC(=O)N2CCC(n3c(=O)[nH]c4ncccc43)CC2)c1=O"
Result block: 6.30

Query block: Query the reported pKi for Calcitonin gene-related peptide type 1 receptor (Homo sapiens, UniProt O60894+Q16602); item: "Cn1cc(-c2ccccc2O)cc(NC(=O)N2CCC(n3c(=O)[nH]c4ncccc43)CC2)c1=O"
Result block: 6.66

Query block: Query the reported pKi for Calcitonin gene-related peptide type 1 receptor (Homo sapiens, UniProt O60894+Q16602); item: "O=C(Nc1cc(-c2ccn[nH]2)cn(CC(F)(F)F)c1=O)N1CCC(n2c(=O)[nH]c3ncccc32)CC1"
Result block: 6.69

Query block: Query the reported pKi for Calcitonin gene-related peptide type 1 receptor (Homo sapiens, UniProt O60894+Q16602); item: "Cn1cc(-c2ccc(C(=O)O)cc2)cc(NC(=O)N2CCC(n3c(=O)[nH]c4ncccc43)CC2)c1=O"
Result block: 5.05

Query block: Query the reported pKi for Calcitonin gene-related peptide type 1 receptor (Homo sapiens, UniProt O60894+Q16602); item: "O=C(Nc1cc(-c2cccc(F)c2)cn(CC(F)(F)F)c1=O)N1CCC(n2c(=O)[nH]c3ncccc32)CC1"
Result block: 7.38

Query block: Query the reported pKi for Calcitonin gene-related peptide type 1 receptor (Homo sapiens, UniProt O60894+Q16602); item: "O=C(Nc1cc(-c2ccccc2)cn(CC2CC2)c1=O)N1CCC(n2cc(-c3ccccc3)[nH]c2=O)CC1"
Result block: 7.10

Query block: Query the reported pKi for Calcitonin gene-related peptide type 1 receptor (Homo sapiens, UniProt O60894+Q16602); item: "Cn1cc(-c2cccc(F)c2F)cc(NC(=O)N2CCC(n3c(=O)[nH]c4ncccc43)CC2)c1=O"
Result block: 6.78

Query block: Query the reported pKi for Calcitonin gene-related peptide type 1 receptor (Homo sapiens, UniProt O60894+Q16602); item: "O=C(Nc1cc(-c2cccc(F)c2F)cn(CC(F)(F)F)c1=O)N1CCC(n2c(=O)[nH]c3ncccc32)CC1"
Result block: 7.77

Query block: Query the reported pKi for Calcitonin gene-related peptide type 1 receptor (Homo sapiens, UniProt O60894+Q16602); item: "O=C(Nc1cc(-c2ccccc2)cn(CC(F)(F)F)c1=O)N1CCC(n2c(=O)[nH]c3ncccc32)CC1"
Result block: 7.02

Query block: Query the reported pKi for Calcitonin gene-related peptide type 1 receptor (Homo sapiens, UniProt O60894+Q16602); item: "O=C(Nc1cc(-c2ccccc2F)cn(CC(F)(F)F)c1=O)N1CCC(n2c(=O)[nH]c3ncccc32)CC1"
Result block: 7.27

Query block: Query the reported pKi for Calcitonin gene-related peptide type 1 receptor (Homo sapiens, UniProt O60894+Q16602); item: "O=C(Nc1cc(-c2ccsc2)cn(CC(F)(F)F)c1=O)N1CCC(n2c(=O)[nH]c3ncccc32)CC1"
Result block: 6.98

Query block: Query the reported pKi for Calcitonin gene-related peptide type 1 receptor (Homo sapiens, UniProt O60894+Q16602); item: "Cn1cc(-c2ccccc2F)cc(NC(=O)N2CCC(n3c(=O)[nH]c4ncccc43)CC2)c1=O"
Result block: 6.67

Query block: Query the reported pKi for Calcitonin gene-related peptide type 1 receptor (Homo sapiens, UniProt O60894+Q16602); item: "COCCn1cc(-c2ccsc2)cc(NC(=O)N2CCC(n3c(=O)[nH]c4ncccc43)CC2)c1=O"
Result block: 6.41

Query block: Query the reported pKi for Calcitonin gene-related peptide type 1 receptor (Homo sapiens, UniProt O60894+Q16602); item: "Cn1cc(-c2ccc(S(C)(=O)=O)cc2)cc(NC(=O)N2CCC(n3c(=O)[nH]c4ncccc43)CC2)c1=O"
Result block: 5.76

Query block: Query the reported pKi for Calcitonin gene-related peptide type 1 receptor (Homo sapiens, UniProt O60894+Q16602); item: Cn1cc(C2C=NC=N2)cc(NC(=O)N2CCC(n3c(=O)[nH]c4ncccc43)CC2)c1=O (configuration not stated)
Result block: 5.69

Query block: Query the reported pKi for Calcitonin gene-related peptide type 1 receptor (Homo sapiens, UniProt O60894+Q16602); item: "Cn1cc(-c2cccc(O)c2)cc(NC(=O)N2CCC(n3c(=O)[nH]c4ncccc43)CC2)c1=O"
Result block: 7.38

Query block: Query the reported pKi for Calcitonin gene-related peptide type 1 receptor (Homo sapiens, UniProt O60894+Q16602); item: "Cn1cc(-c2cccc(F)c2)cc(NC(=O)N2CCC(n3c(=O)[nH]c4ncccc43)CC2)c1=O"
Result block: 6.81

Query block: Query the reported pKi for Calcitonin gene-related peptide type 1 receptor (Homo sapiens, UniProt O60894+Q16602); item: "Cn1cc(-c2ncccn2)cc(NC(=O)N2CCC(n3c(=O)[nH]c4ncccc43)CC2)c1=O"
Result block: 5.72

Query block: Query the reported pKi for Calcitonin gene-related peptide type 1 receptor (Homo sapiens, UniProt O60894+Q16602); item: "COCCn1cc(-c2ccccc2)cc(NC(=O)N2CCC(n3c(=O)[nH]c4ncccc43)CC2)c1=O"
Result block: 6.64

Query block: Query the reported pKi for Calcitonin gene-related peptide type 1 receptor (Homo sapiens, UniProt O60894+Q16602); item: "COCCn1cc(-c2cccnc2)cc(NC(=O)N2CCC(n3c(=O)[nH]c4ncccc43)CC2)c1=O"
Result block: 6.16

Query block: Query the reported pKi for Calcitonin gene-related peptide type 1 receptor (Homo sapiens, UniProt O60894+Q16602); item: "O=C(Nc1cc(-c2ccccc2)cn(CC2CC2)c1=O)N1CCC(n2c(=O)[nH]c3ncccc32)CC1"
Result block: 6.77

Query block: Query the reported pKi for Calcitonin gene-related peptide type 1 receptor (Homo sapiens, UniProt O60894+Q16602); item: "COc1ccc(-c2cc(NC(=O)N3CCC(n4c(=O)[nH]c5ncccc54)CC3)c(=O)n(C)c2)cc1"
Result block: 6.31

Query block: Query the reported pKi for Calcitonin gene-related peptide type 1 receptor (Homo sapiens, UniProt O60894+Q16602); item: "Cn1cc(-c2cccnc2)cc(NC(=O)N2CCC(n3c(=O)[nH]c4ncccc43)CC2)c1=O"
Result block: 6.57

Query block: Query the reported pKi for Calcitonin gene-related peptide type 1 receptor (Homo sapiens, UniProt O60894+Q16602); item: "COCCn1cc(-c2ccn[nH]2)cc(NC(=O)N2CCC(n3c(=O)[nH]c4ncccc43)CC2)c1=O"
Result block: 6.85

Query block: Query the reported pKi for Calcitonin gene-related peptide type 1 receptor (Homo sapiens, UniProt O60894+Q16602); item: "Cn1cc(-c2ccsc2)cc(NC(=O)N2CCC(n3c(=O)[nH]c4ncccc43)CC2)c1=O"
Result block: 7.12

Query block: Query the reported pKi for Calcitonin gene-related peptide type 1 receptor (Homo sapiens, UniProt O60894+Q16602); item: Cn1cc(C2C=CN=N2)cc(NC(=O)N2CCC(n3c(=O)[nH]c4ncccc43)CC2)c1=O (configuration not stated)
Result block: 7.15

Query block: Query the reported pKi for Calcitonin gene-related peptide type 1 receptor (Homo sapiens, UniProt O60894+Q16602); item: "O=C(Nc1ccc(-c2ccccc2)n(CC2CC2)c1=O)N1CCC(n2cc(-c3ccccc3)[nH]c2=O)CC1"
Result block: 5.47

Query block: Query the reported pKi for Calcitonin gene-related peptide type 1 receptor (Homo sapiens, UniProt O60894+Q16602); item: "O=C(Nc1cc(-c2ccc(O)cc2)cn(CC(F)(F)F)c1=O)N1CCC(n2c(=O)[nH]c3ncccc32)CC1"
Result block: 7.02

Query block: Query the reported pKi for Calcitonin gene-related peptide type 1 receptor (Homo sapiens, UniProt O60894+Q16602); item: "COCCn1cc(-c2ccc(O)cc2)cc(NC(=O)N2CCC(n3c(=O)[nH]c4ncccc43)CC2)c1=O"
Result block: 7.13

Query block: Query the reported pKi for Calcitonin gene-related peptide type 1 receptor (Homo sapiens, UniProt O60894+Q16602); item: "COCCn1cc(-c2cccc(F)c2F)cc(NC(=O)N2CCC(n3c(=O)[nH]c4ncccc43)CC2)c1=O"
Result block: 7.39
